B1: STX5 (parent)
chain: ESTIVELGSIFQQLAHMVKEQEET

- Variants of: B1
- MEASUREMENT_PROTOCOL: protein stability index of a GFP-peptide fusion (GPS, HEK-293T) (PSI 1-6); higher = more stable;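 note: lentivirally expressed fusions sorted by FACS into six bins by GFP to DsRed ratio, PSI derived from sequencing read proportions per bin multiplied by bin number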
- COND: c terminus: a fixed tail appended
Given measured protein stability index, output rule met if it is greater than or equal to 2 and rule not met if not.

Tell me whether protein stability index is at least 2 here: `M17Q`
rule met

Tell me whether protein stability index is at least 2 here: `L7E`
rule met

Tell me whether protein stability index is at least 2 here: `S2K`
rule met

Tell me whether protein stability index is at least 2 here: `E23L`
rule not met

Tell me whether protein stability index is at least 2 here: `S9C`
rule not met

Tell me whether protein stability index is at least 2 here: `E1V`
rule not met

Tell me whether protein stability index is at least 2 here: `Q21N`
rule met
